Catalogue of molecules with associated Ki
# Measured on: human ORL1 receptor (Homo sapiens)
# Construct: purchased PerkinElmer; host or cells: HEK-293 cells transfected with human ORL1 receptor (membranes)
# Sequence (P41146 whole entry): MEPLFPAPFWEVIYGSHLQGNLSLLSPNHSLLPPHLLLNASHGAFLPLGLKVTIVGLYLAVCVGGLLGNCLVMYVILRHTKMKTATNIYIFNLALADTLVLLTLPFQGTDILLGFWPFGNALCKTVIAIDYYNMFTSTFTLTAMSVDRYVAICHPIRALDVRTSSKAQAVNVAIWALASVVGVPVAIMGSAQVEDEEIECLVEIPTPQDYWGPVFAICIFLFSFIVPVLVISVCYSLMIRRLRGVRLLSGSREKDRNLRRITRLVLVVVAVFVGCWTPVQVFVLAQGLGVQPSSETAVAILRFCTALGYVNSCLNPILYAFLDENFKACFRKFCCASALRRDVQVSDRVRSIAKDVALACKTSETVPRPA
# Test protocol: ORL1-Receptor Binding Assay
# Applied conditions: [3H]nociceptin, human ORL1 receptor transfected HEK-293 cell membranes; read-out: Ki
Counter-ions that a name gives are not always drawn.
Reply numerically in nM, unit not repeated.

Take a look at these entries with their results.
INSERT INTO measurements (molecule, unit_tag, value_observed) VALUES
  ('CN(C)C(=O)C(CN1C2CCC1CC1(C2)OCc2ccc(F)cc21)Cn1cccn1 (single isomer, unassigned; (-)) [Example 7]', 'nM', 3.6),
  ('CN(C)C(=O)C(CN1C2CCC1CC1(C2)OCCc2cc(F)ccc21)Cn1cccn1 (single isomer, unassigned; (+)) [Example 12, CITRATE]', 'nM', 140),
  ('CN(C)C(=O)C(CN1C2CCC1CC1(C2)OCCc2cc(F)ccc21)Cn1cccn1 (single isomer, unassigned; (-)) [Example 13]', 'nM', 1),
  ('CN(C)C(=O)C(CN1C2CCC1CC1(C2)OCc2ccc(F)cc21)Cn1cccn1 (single isomer, unassigned) [Example 8, CITRATE]', 'nM', 2.6),
  ('CN(C)C(=O)C(CN1C2CCC1CC1(C2)OCc2ccccc21)Cn1cccn1 (stereo not shown) [Example 2, CITRATE]', 'nM', 2.4);

Prompt: Entry under review: CN(C)C(=O)C(CN1C2CCC1CC1(C2)OCc2ccc(F)cc21)Cn1cccn1 (stereo not shown) [Example 5, CITRATE] . Reported Ki?
Response: 3.6

Prompt: Next entry: CN(C)C(=O)C(Cc1cscn1)CN1C2CCC1CC1(C2)OCc2ccc(F)cc21 (stereo not shown) [Example 9]
Response: 3.8
